# Test system: SK-MEL-2 melanoma
# procedureSummary: NCI-60 one-dose screen, 48 h (100 = growth as untreated, 0 = no growth, -100 = all killed)
# particulars: 10 µM unless noted
The panel holds about 83,000 compounds, 20% with a hit somewhere; the sample as a whole holds those more often.
measuredProperty: growth (%)
Please state the figure in %; there is no need to write the unit.

Example compounds with recorded growth:
{"columns": ["compound", "outputUnit", "growth"],
 "data": [
  ["COc1ccccc1-n1cc(C#N)c(N)c1C(=O)c1ccc(Cl)cc1", "%", 78.4],
  ["COc1ccc(S(=O)(=O)NCCCNc2nccc(-c3cn(C(C)(C)C)nc3-c3ccc(Cl)c(OC)c3)n2)cc1", "%", 89.7],
  ["CCO/C=N/C1=C(C#N)C(c2ccc(OC)cc2)c2sc3c(C)cccc3c2O1 (centres undefined)", "%", 36.5]
]}

Okay, next one:
Any idea what growth was measured for CCN1CCN(C(=O)[C@]23CCC(C)(C)C[C@H]2C2=CC[C@@H]4[C@@]5(C)Cc6c([nH]c7ccccc67)C(C)(C)[C@@H]5CC[C@@]4(C)[C@]2(C)CC3)CC1 ?
104

----------
# Test system: SF-539 CNS
# procedureSummary: NCI-60 one-dose screen, 48 h
# particulars: 10 µM unless noted
# Method: Cells are grown in 96 well plates and exposed to the test compound for 48 hours. Compounds are tested at a single concentration, which is 10^-5 M for most compounds. The reported endpoint is percent growth (GI% or GIPRCNT), where numbers from 0 - 100% represent growth inhibition, and numbers from -100% - 0 represent cell death. For example, a value of 40 represents 60% growth inhibition. A value of 0 means no net growth occurred over the course of the experiment. […]
About 83,000 compounds went through this panel and 20% of them were active in at least one assay; those are over-represented in the sample as a whole. The source made the active and inactive calls. Rule for the calls: active = growth percent below 10; inactive = the rest.
Mark one answer only. Choices: active, inactive

Tell me the assay call for COc1c(N2CC3CCCNC3C2)c(F)cc2c(=O)c(C(=O)N/N=C/c3ccc4c(c3)OCO4)cn(C3CC3)c12 (stereo not given) please.
active

Continue with COc1ccccc1-n1cc(C#N)c(N)c1C(=O)c1ccc(Br)cc1
inactive

Another compound to look at: Cc1ccc(C2=Nn3c(nnc3-c3ccccc3)SC2)cc1
inactive

Entry to check: CC(=O)c1cc(C(=O)c2ccc(Br)cc2)n2cc(C)cc(C)c12
inactive

Please answer likewise for N/C(=N\C(N)=N\c1nc2ccccc2s1)c1cccc(F)c1
inactive

Can you check NC(N)=Nc1ccc(Oc2cccc(Nc3ccc(Cl)c(C(F)(F)F)c3)c2)cn1 next?
inactive

Please answer likewise for CC(C)(C)c1ccc(CC(=O)Nc2sc3c(c2C(N)=O)CCC(=O)C3)cc1
active

Request: C=CCn1c(SCC(=O)Nc2ccc(C(=O)/C=C/c3cc(OC)c(OC)c(OC)c3)cc2)nnc1-c1c[nH]c2ccccc12
active

How about this compound: Cc1ccc(-n2c(/C=C3\C(=O)Nc4ccccc43)ccc2CO)cc1
inactive

What about COc1cc2nc(Cl)nc(Nc3cccc(C4=Nc5c(N)nc(N)nc5NC(c5ccc6c(c5)OCO6)C4)c3)c2cc1OC (stereo not given) ?
inactive

----------
# System: UO-31 renal
# procedureSummary: NCI-60 one-dose screen, 48 h (100 = growth as untreated, 0 = no growth, -100 = all killed)
# particulars: 10 µM unless noted
Compounds without any hit were thinned out: in the full panel of roughly 83,000, 20% have a hit.
measuredProperty: growth (%)
Just the number please, in %, no unit attached.

These recorded examples may help you get a feel for the data.
{"columns": ["mol", "growth, %"],
 "data": [
  ["CC1=NC2=NC(=O)/C(=C3/N=C(C)C=C(c4ccccc4)N3N)NN2C(c2ccccc2)=C1", 78.6],
  ["COc1cc2oc(-c3cccc(N)c3)cc(=O)c2c(OC)c1OC", 80.6],
  ["COc1ccc(-c2nc3ccc(-c4nnc(SCC(=O)Nc5ccc(C(=O)/C=C/c6ccc(Cl)cc6)cc5)o4)cc3[nH]2)cc1", 85.3],
  ["Nc1nc(-c2cccc([N+](=O)[O-])c2)c(N=Nc2ccccc2)s1", 62.2]
]}

// below: growth requested for another compound
Please report the recorded growth for NC(N)=Nc1ccc(Nc2cccc(Oc3ccc(Cl)c(C(F)(F)F)c3)c2)cn1 .
56.4
